Hey, just so you know, these numbers are from the supplement of paper PMC4466140.

biological target: CaAbp1-D1; test: SPOT peptide array binding signal intensity (averaged, normalized) (arbitrary units (background-subtracted, floor 0; scale differs between SH3 domains)); higher = stronger binding of the SH3 domain to the peptide
measureName: SPOT peptide array binding signal intensity
No unit in the answer, please; the number alone is enough.

Below are worked cases with known answers.
{"binder": "PAPPPPPRASRPTPN", "obsValue": 24.5}
{"binder": "SKAKRPKFLLDLQIK", "obsValue": 502}
{"binder": "DKSRPPRPPPKPLHL", "obsValue": 782}
{"binder": "NILKRRPLKLEAPSK", "obsValue": 478}
{"binder": "EVTPKVPERPSRRKT", "obsValue": 324}
{"binder": "RSLRKRPTSPSISGS", "obsValue": 1720}

Q: Which SPOT peptide array binding signal intensity value belongs to FFRRSELYLPNSSKA ?
A: 70

Q: Returns the measured SPOT peptide array binding signal intensity for the input binder. Input: ILARAILTIPRVLDK
A: 30

Q: Query (binder): NMLKKKPLKKPLKRF ; field requested: SPOT peptide array binding signal intensity
A: 2870

Q: Requested read-out: SPOT peptide array binding signal intensity. Entry: RKLRTVPGVPLIHLT
A: 224

Q: For the binder shown here, ISRRRLPVIMHRLKM , give the reported SPOT peptide array binding signal intensity.
A: 617

Q: So what's the measured SPOT peptide array binding signal intensity for this one? GRSRLFPHSPLGRSS
A: 491

Q: What value of SPOT peptide array binding signal intensity has been reported for the following binder? LPPPPPPPPPPPLPQ
A: 9
